- System: p-IKKa levels in L363 (NIK translocated multiple myeloma) cells
- procedureText: Effect of compounds on p-IKKa levels in L363 (NIK translocated multiple myeloma) cells (AlphaLISA SureFire Ultra p-IKKa Ser176/180)
- Type: cell-based, human
- assayContext: Homo sapiens, L-363, read-out: Assay 2 IC50
testReadout: IC50

Ask | I would be grateful if you could share the reported IC50 for `Cc1cncnc1Nc1nccc(-c2csc(-c3cccc([C@]4(O)CCN(C)C4=O)c3)n2)n1` .
Reply | > 501 nM

----------
// reported pIC50 for each item listed
- Tested on: p-IKKa levels in L363 (NIK translocated multiple myeloma) cells
- procedureText: Effect of compounds on p-IKKa levels in L363 (NIK translocated multiple myeloma) cells (AlphaLISA SureFire Ultra p-IKKa Ser176/180)
- Assay type: cell-based, human
- assayContext: Homo sapiens, L-363, p-IKKa levels in L363 cells; average if tested more than once; read-out: Assay 2 IC50
pIC50: −log10 of the molar value.

CN1CC[C@@](O)(c2cccc(-c3nc(-c4ccnc(NCC5CCO5)n4)cs3)c2)C1=O (stereo partly shown)
< 6.30
CN1CC[C@@](O)(c2cccc(-c3nc(-c4ccnc(NC5CC6CC(O)C5C6)n4)cs3)c2)C1=O (stereo partly shown)
< 6.30

Ask | I would be grateful if you could share the reported pIC50 for `CN1CC[C@@](O)(c2cccc(-c3nc(-c4ccnc(NCCn5cccn5)n4)cs3)c2)C1=O` .
Reply | < 6.30

Ask | What do you have for `CN1CC[C@@](O)(c2cccc(-c3nc(-c4ccnc(NC5CCOCC5)n4)cs3)c2)C1=O` ?
Reply | < 6.30

Ask | What do you have for `COc1ncccc1Nc1nccc(-c2csc(-c3cccc([C@]4(O)CCN(C)C4=O)c3)n2)n1` ?
Reply | 6.30 to 7.00

Ask | What do you have for `CN1CC[C@@](O)(c2cccc(-c3nc(-c4ccnc(Nc5ccnnc5)n4)cs3)c2)C1=O` ?
Reply | < 6.30

Ask | What do you have for CN1CC[C@@](O)(c2cccc(-c3nc(-c4ccnc(NC5CCN(c6cnn(C)c6)C5)n4)cs3)c2)C1=O (stereo partly shown) ?
Reply | < 6.30

----------
- assayedSystem: Recombinant Human NF-kappaB-Inducing Kinase (NIK/MAP3K14) (Homo sapiens)
- Sequence (Q99558 whole entry): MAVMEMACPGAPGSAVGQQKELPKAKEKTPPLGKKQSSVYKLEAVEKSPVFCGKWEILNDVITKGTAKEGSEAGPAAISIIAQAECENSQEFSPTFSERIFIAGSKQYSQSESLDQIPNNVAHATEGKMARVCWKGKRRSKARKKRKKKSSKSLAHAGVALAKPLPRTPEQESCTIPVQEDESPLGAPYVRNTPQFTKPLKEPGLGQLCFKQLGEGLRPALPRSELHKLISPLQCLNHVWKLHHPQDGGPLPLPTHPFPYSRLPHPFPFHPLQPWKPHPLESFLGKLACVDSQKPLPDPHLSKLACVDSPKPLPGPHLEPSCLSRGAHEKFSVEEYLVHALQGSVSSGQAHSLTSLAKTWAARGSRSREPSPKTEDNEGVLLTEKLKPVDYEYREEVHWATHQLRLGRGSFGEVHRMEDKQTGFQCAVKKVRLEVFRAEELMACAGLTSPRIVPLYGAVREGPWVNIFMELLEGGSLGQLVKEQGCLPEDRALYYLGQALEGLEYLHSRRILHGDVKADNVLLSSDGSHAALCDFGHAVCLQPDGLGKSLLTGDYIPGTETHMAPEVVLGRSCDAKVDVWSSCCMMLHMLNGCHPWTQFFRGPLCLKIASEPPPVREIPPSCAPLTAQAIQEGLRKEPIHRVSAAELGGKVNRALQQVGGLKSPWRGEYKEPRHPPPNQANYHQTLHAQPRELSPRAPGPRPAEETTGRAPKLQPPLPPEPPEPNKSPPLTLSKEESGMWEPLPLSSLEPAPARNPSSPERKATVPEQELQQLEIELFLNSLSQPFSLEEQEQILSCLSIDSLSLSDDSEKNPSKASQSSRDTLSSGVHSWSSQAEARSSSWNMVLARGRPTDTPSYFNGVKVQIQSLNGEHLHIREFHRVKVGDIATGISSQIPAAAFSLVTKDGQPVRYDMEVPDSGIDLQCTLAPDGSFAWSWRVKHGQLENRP
- procedureText: Inhibition of auto-phosphorylation of recombinant human NIK/MAP3K14 activity (AlphaScreen)
- assayContext: 5 μM ATP, 1 nM NIK, average if tested more than once
testReadout: IC50

The following compounds have reported results that may help.
CN1CC[C@@](O)(c2cccc(-c3nc(-c4ccnc(NC5CCOc6cccnc65)n4)cs3)c2)C1=O (some centres unmarked)
< 0.1 µM
CN1CC[C@@](O)(c2cccc(-c3nc(-c4ccnc(Nc5cnn(CC(F)F)c5)n4)cs3)c2)C1=O
< 0.1 µM
CN1CC[C@@](O)(c2cccc(-c3nc(-c4ccnc(NC5CC6(CC(O)C6)C5)n4)cs3)c2)C1=O (some centres unmarked)
0.1 to 0.5 µM
CN1CC[C@@](O)(c2cccc(-c3nc(-c4ccnc(Nc5cnn(CC6CC6)c5)n4)cs3)c2)C1=O
< 0.1 µM
CN1CC[C@@](O)(c2cccc(-c3csc(-c4ccnc(Nc5cnn(C6CCS(=O)(=O)CC6)c5)n4)n3)c2)C1=O
< 0.1 µM
CN1CC[C@@](O)(c2cccc(-c3nc(-c4ccnc(Nc5cnn(C6CC6)c5)n4)cs3)c2)C1=O
< 0.1 µM
COc1cccnc1Nc1nccc(-c2csc(-c3cccc([C@]4(O)CCN(C)C4=O)c3)n2)n1
> 0.501 µM
CN1CC[C@@](O)(c2cccc(-c3nc(-c4ccnc(Nc5cc(C6CC6)nn5C)n4)cs3)c2)C1=O
< 0.1 µM
C[C@H](Nc1nccc(-c2nc(-c3cc([C@]4(O)CCN(C)C4=O)ccn3)cs2)n1)c1ccnn1C
< 0.1 µM
CN1CC[C@@](O)(c2cccc(-c3csc(-c4ccnc(Nc5cnn6ccccc56)n4)n3)c2)C1=O
< 0.1 µM

Ask | Give Recombinant Human NF-kappaB-Inducing Kinase (NIK/MAP3K14) (Homo sapiens) IC50 for CN1CCC(O)(c2cc(C#N)cc(-c3csc(-c4ccnc(Nc5ccn(C)n5)n4)n3)c2)C1=O (single isomer, unassigned) [Example 58]
Reply | > 0.501 µM

Ask | What do you have for `CN1CC[C@@](O)(c2cccc(-c3nc(-c4ccnc(Nc5nccc(C(F)(F)F)n5)n4)cs3)c2)C1=O` ?
Reply | 0.1 to 0.5 µM

Ask | What do you have for `COc1ccnc(Nc2nccc(-c3csc(-c4cccc([C@]5(O)CCN(C)C5=O)c4)n3)n2)c1` ?
Reply | < 0.1 µM

Ask | What do you have for C[C@H](Nc1nccc(-c2csc(-c3cccc([C@]4(O)CCN(C)C4=O)c3)n2)n1)c1cncn1C (single isomer, unassigned) ?
Reply | < 0.1 µM

----------
// reported pIC50 for each item listed
- Test system: p-IKKa levels in L363 (NIK translocated multiple myeloma) cells
- procedureText: Effect of compounds on p-IKKa levels in L363 (NIK translocated multiple myeloma) cells (AlphaLISA SureFire Ultra p-IKKa Ser176/180)
- Type: cell-based, human
- assayContext: Homo sapiens, L-363, p-IKKa levels in L363 cells; average if tested more than once; read-out: Assay 2 IC50
pIC50: −log10 of the molar value.

CCn1cc(Nc2nccc(-c3csc(-c4cccc([C@]5(O)CCN(C)C5=O)c4)n3)n2)c(C)n1
> 7.00
Cc1cccc(CNc2nccc(-c3csc(-c4cccc([C@]5(O)CCN(C)C5=O)c4)n3)n2)n1
< 6.30
Cc1cc(CNc2nccc(-c3csc(-c4cccc([C@]5(O)CCN(C)C5=O)c4)n3)n2)n[nH]1 [Example 113]
< 6.30
CN1CC[C@@](O)(c2cccc(-c3nc(-c4ccnc(Nc5cnn(C6CC6)c5)n4)cs3)c2)C1=O
6.30 to 7.00
C[C@@H](Nc1nccc(-c2nc(-c3cc([C@]4(O)CCN(C)C4=O)ccn3)cs2)n1)c1ccnn1C
6.30 to 7.00
CN1CC[C@@](O)(c2cccc(-c3nc(-c4ccnc(Nc5ccn(C)n5)n4)cs3)c2)C1=O
6.30 to 7.00

Now, please, on to the next molecule.
Ask | I would be grateful if you could share the reported pIC50 for `CCOc1cn(C)nc1Nc1nccc(-c2csc(-c3cccc([C@]4(O)CCN(C)C4=O)c3)n2)n1` .
Reply | > 7.00

----------
// reported pIC50 for each item listed
- assayedSystem: Recombinant Human NF-kappaB-Inducing Kinase (NIK/MAP3K14) (Homo sapiens)
- procedureText: Inhibition of auto-phosphorylation of recombinant human NIK/MAP3K14 activity (AlphaScreen)
- assayContext: 5 μM ATP, 1 nM NIK, average if tested more than once
pIC50: −log10 of the molar value.

The following compounds have reported results that may help.
CN1CC[C@@](O)(c2ccnc(-c3ccn(-c4ccnc(Nc5cnn6ccccc56)n4)n3)c2)C1=O (single isomer, unassigned)
> 7.00
CN1CC[C@@](O)(c2cncc(-c3csc(-c4ccnc(Nc5cnn(C)c5)n4)n3)c2)C1=O (single isomer, unassigned)
> 7.00
CN1CC[C@@](O)(c2cccc(-c3nc(-c4ccnc(N[C@@H]5[C@@H]6COC[C@@H]65)n4)cs3)c2)C1=O
6.30 to 7.00
CN1CC[C@@](O)(c2cccc(-c3nc(-c4ccnc(NCCC(C)(C)O)n4)cs3)c2)C1=O
6.30 to 7.00

Ask | I would be grateful if you could share the reported pIC50 for `Cc1ccnc(CNc2nccc(-c3csc(-c4cccc([C@]5(O)CCN(C)C5=O)c4)n3)n2)n1` .
Reply | 6.30 to 7.00

Ask | What do you have for `CN1CC[C@@](O)(c2cccc(-c3nc(-c4ccnc(Nc5ccn(CC(F)(F)F)n5)n4)cs3)c2)C1=O` ?
Reply | > 7.00

Ask | What do you have for `Cc1nn(C(F)F)cc1Nc1nccc(-c2csc(-c3cccc([C@]4(O)CCN(C)C4=O)c3)n2)n1` ?
Reply | > 7.00

Ask | What do you have for `CN1CC[C@@](O)(c2cccc(-c3csc(-c4ccnc(Nc5cnn(CCO)c5)n4)n3)c2)C1=O` ?
Reply | > 7.00

Ask | What do you have for `CN1CC[C@@](O)(c2cccc(-c3nc(-c4ccnc(NCCC(F)(F)F)n4)cs3)c2)C1=O` ?
Reply | > 7.00

Ask | What do you have for CN1CC[C@@](O)(c2cccc(-c3nc(-c4ccnc(NC5CCCn6nccc65)n4)cs3)c2)C1=O (stereo partly drawn) ?
Reply | > 7.00

Ask | What do you have for `CN1CC[C@@](O)(c2cccc(-c3nc(-c4ccnc(NCC5(O)CC5)n4)cs3)c2)C1=O` ?
Reply | 6.30 to 7.00

Ask | What do you have for `CN1CC[C@@](O)(c2cccc(-c3nc(-c4ccnc(Nc5nc6ccccc6n5C)n4)cs3)c2)C1=O` ?
Reply | < 6.30

Ask | What do you have for CN1CC[C@@](O)(c2cccc(-c3nc(-c4ccnc(N[C@@H]5CCCc6cn[nH]c65)n4)cs3)c2)C1=O (single isomer, unassigned) ?
Reply | < 6.30

Ask | What do you have for `Cc1nccc(Nc2nccc(-c3csc(-c4cccc([C@]5(O)CCN(C)C5=O)c4)n3)n2)n1` ?
Reply | > 7.00

Ask | What do you have for `Cc1cc(CNc2nccc(-c3csc(-c4cccc([C@]5(O)CCN(C)C5=O)c4)n3)n2)nn1C` ?
Reply | > 7.00
